System: HEK-293T
protocol_description: Incucyte cell viability with HEK293T; further: unitless GR value; below 1 slowed growth and below 0 cell loss
Assay type: toxicity, cell-based
experimental_context: human, 24 h, 10 µM, compound concentration 10 uM, replicate number 2, timepoint 24 hours
I'd appreciate it if you marked entries criterion met when Growth Rate is lower than 0.6 and criterion not met when it is not.

| molecule | assigned_category |
| --- | --- |
| Cc1ccccc1C(=O)Nc1ccc(C(=O)N2CCCC(N(C)C)c3ccccc32)cc1.Cl (centres undefined) | criterion met |
| COC(=O)Nc1nc2ccc(C(=O)c3cccs3)cc2[nH]1 | criterion met |
| CNC(=O)[C@H]1O[C@@H](n2cnc3c(NCc4cccc(I)c4)ncnc32)[C@H](O)[C@@H]1O | criterion not met |
| CN(C)CCN(Cc1ccc(-c2ccc(CNCCc3ccccc3)cc2)cc1)C(=O)CCC1CCCC1.Cl.Cl | criterion met |
| CC(C)CC(=O)Nc1cncc(-c2ccc3[nH]nc(-c4nc5c(-c6cccc(F)c6)cncc5[nH]4)c3c2)c1 | criterion met |
| Cl.Cl.NCCc1c[nH]cn1 [HISTAMINE DIHYDROCHLORIDE] | criterion not met |
| Cc1cc(C)cc(C(=O)NOCCCCCC(=O)NO)c1 | criterion met |
| O=c1c2cccn2c2ccccc2n1CCCN1CCC(c2ccc(Cl)cc2)CC1 | criterion not met |
| CCN(Cc1ccncc1)C(=O)C(CO)c1ccccc1 (centres undefined) [TROPICAMIDE] | criterion not met |
| N#Cc1cc2c(OCC(O)CN3CCN(C(c4ccccc4)c4ccccc4)CC3)cccc2[nH]1 (racemic) | criterion met |
| CC(C)COc1ccc(CNC(=O)N(Cc2ccc(F)cc2)C2CCN(C)CC2)cc1 | criterion met |
| C[C@H](CCC(=O)O)[C@H]1CC[C@H]2[C@@H]3CC[C@@H]4C[C@H](O)CC[C@]4(C)[C@H]3CC[C@]12C | criterion not met |
| COc1cc(Nc2nc(C)cc(-c3cnn4nc(OC)ccc34)n2)cc(C(F)(F)F)c1 | criterion not met |
| CSCC[C@H](NC(=O)[C@H](CC(C)C)NC(=O)CNC(=O)[C@H](Cc1ccccc1)N(C)C(=O)[C@H](Cc1ccccc1)NC(=O)[C@H](CC(=O)O)NC(=O)CCC(=O)O)C(N)=O [SENKTIDE] | criterion not met |
| CC(C)n1cc(-c2ccc(N3CCN(C)CC3)c(NC(=O)c3ccc(-c4ccncc4)o3)c2)cn1 | criterion not met |
| COc1cc2nc(N(C)CCCNC(=O)C3CCCO3)nc(N)c2cc1OC.Cl (centres undefined) [ALFUZOSIN HYDROCHLORIDE] | criterion not met |
| CCCCCCCC/C=C\CCCCCCCC(N)=O [OLEAMIDE] | criterion not met |
| CCNC(=O)c1cc2c(-c3cc(C(C)(C)O)ccc3Oc3c(C)cc(F)cc3C)cn(C)c(=O)c2[nH]1 | criterion not met |
| NC(=O)c1cc2c(-c3ccc(C(=O)NCc4ccnc(Cl)c4)s3)cccc2s1 | criterion met |
| O=C(NC[C@@H]1[C@H]2CN(C(=O)OCc3cc(C(F)(F)F)cc(C(F)(F)F)c3)C[C@@H]12)c1ccc2[nH]nnc2c1 | criterion not met |
| C[N+]1(C)[C@@H]2C[C@@H](OC(=O)C(O)(c3cccs3)c3cccs3)C[C@H]1[C@@H]1O[C@@H]12.O.[Br-] [TIOTROPIUM BROMIDE] | criterion not met |
| S=C(NCCCc1c[nH]cn1)NCCCN(Cc1ccc(Cl)c(Cl)c1)c1ccc(Br)cn1 | criterion met |
| CCC(C)n1ncn(-c2ccc(N3CCN(c4ccc(OC[C@@H]5CO[C@@](Cn6cncn6)(c6ccc(Cl)cc6Cl)O5)cc4)CC3)cc2)c1=O.CCC(C)n1ncn(-c2ccc(N3CCN(c4ccc(OC[C@H]5CO[C@](Cn6cncn6)(c6ccc(Cl)cc6Cl)O5)cc4)CC3)cc2)c1=O (some centres undefined) | criterion met |
| CC(C)Oc1ccc(Cc2ccc(NC3=NCCN3)cc2)cc1 | criterion met |
| Cc1c(C(=O)Nc2ccc(N3C[C@@H](C)O[C@@H](C)C3)nc2)cccc1-c1ccc(OC(F)(F)F)cc1 | criterion met |
| Cc1cc(Nc2ncc(Cl)c(Nc3ccccc3S(=O)(=O)C(C)C)n2)c(OC(C)C)cc1C1CCNCC1 | criterion met |
| C[C@]12N[C@H](Cc3ccccc31)c1ccccc12 | criterion not met |
| CC(C)c1noc(N2CCC(COc3ccc(-c4ccc(S(C)(=O)=O)cc4)nc3)CC2)n1 | criterion met |
